System: Escherichia coli TOP10;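 also: peptides expressed intracellularly from a pBAD plasmid library in pooled LB shake-flask culture, induced with 0.3% L-arabinose, DNA abundance read by NGS, three biological replicates, DESeq2 with apeglm shrinkage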
Assay: shrunken log2 fold change of peptide-encoding DNA abundance (4.5 h post-induction vs induction); higher = less antimicrobial activity (less host growth inhibition)
Conditions: time post-induction: 4.5 h; library: site-saturation at positions 5, 18, 19, 20
Give measured shrunken log2 fold change for each item. Keep answers brief.

Below, 5 sequences whose answers are already recorded.
RRIRVRPPRLPRPRPRPDVLPRP	0.00338
RRIRKRPPRLPRPRPRPHHLPRP	-0.232
RRIRRRPPRLPRPRPRPTYFPRP	0.0897
RRIRCRPPRLPRPRPRPDPFPRP	-0.187
RRIRVRPPRLPRPRPRPNGIPRP	-0.161

// for each sequence in input: emit shrunken log2 fold change
1. RRIRLRPPRLPRPRPRPHRAPRP
2. RRIRFRPPRLPRPRPRPQILPRP
3. RRIRFRPPRLPRPRPRPASRPRP

output:
1: -0.0697; 2: -0.713; 3: 0.128
